- Tested on: B16/F1 tumor-bearing C57BL6 mice
- assay.overview: Tissue concentration of radioiodinated benzamides in the C57BL6-B16/F1 mouse model (organ distribution and tumor accumulation)
- Format: in vivo
- experimental.setup: 24 hours after intravenous administration; n = 3
attribute.measured: Tumor tissue concentration

>>> print(df.to_string())
                                   molecule          attribute_measured                          recorded_value
0  CCN(CC)CCNC(=O)c1cc(I)c(NC(=O)c2ccc(F)cc2)cc1OC [BA100]  Tumor tissue concentration  31.66 % Injected Dose (ID)/g of Tissue
1  CCN(CC)CCNC(=O)c1cc(I)c(NC(=O)c2ccc(OC)cc2)cc1OC [BA95]  Tumor tissue concentration  29.69 % Injected Dose (ID)/g of Tissue
2  CCN(CC)CCNC(=O)c1cc(I)c(NC(=O)c2ccc(Cl)cc2)cc1OC [BA93]  Tumor tissue concentration  23.46 % Injected Dose (ID)/g of Tissue
3  CCN(CC)CCNC(=O)c1cc(I)c(NC(=O)c2ccc3c(c2)OCO3)cc1OC [BA52]  Tumor tissue concentration  18.82 % Injected Dose (ID)/g of Tissue

Next:
INPUT: May I ask what Tumor tissue concentration has been recorded for CCN(CC)CCNC(=O)c1cc(I)c(NC(=O)c2ccccc2)cc1OC [BA91] ?
OUTPUT: 13.83 % Injected Dose (ID)/g of Tissue
